Where do the numbers come from? From paper PMC5540273.

Let's look at some compounds and their measured %Inh.
Tested on: PFTAIRE2
Condition summary: concentration: 1 μM, replicates: in singlicate; n = 1
Reply numerically in %, unit not repeated.

Compound	%Inh / %
O=C(NOCC1CC1)c1ccc(F)c(F)c1Nc1ccc(I)cc1Cl	0

# context switch: different compound, same %Inh
Entry under test: CN(C(=O)c1ccc(-c2cc(-c3c[nH]nc3-c3ccccn3)ccn2)cc1)C1CCOCC1 . Its %Inh was 29

----------
Test system: DYRK1A
Condition summary: concentration: 1 μM, replicates: in singlicate; n = 1
Metric: %Inh (%)
Reply numerically in %, unit not repeated.

Compound	Unit text	%Inh
COCCNC(=O)c1ccc(-c2cc(C(=O)NC3CC3)cc(F)c2C)cc1 [GW868318]	%	9
Cc1nnc(-c2ccc(C)c(-c3ccc(C(=O)Nc4ccc(NS(C)(=O)=O)cc4)cc3)c2)o1 [GW702865]	%	0
CCc1nc(-c2cccc(C)c2)c(-c2ccnc(NCc3ccccc3)c2)s1	%	0
COc1cc2ncn(-c3cc(OCc4sccc4Cl)c(C(N)=O)s3)c2cc1OC [GSK448459]	%	13

Entry under test: Fc1ccc(-c2ncn(CCCN3CCOCC3)c2-c2ccccn2)cc1 [SB-211742] . Its %Inh was 11

----------
Test system: CSNK1E
Condition summary: concentration: 1 μM, replicates: in singlicate; n = 1
Metric: %Inh (%)
Reply numerically in %, unit not repeated.

Below, 5 compounds whose answers are already recorded.
Compound	%Inh, %
O=C(NCCNc1ccnc(Nc2ccc(F)cc2)n1)c1cc2ccccc2s1	37
Fc1ccc(-c2ncn(CCCN3CCOCC3)c2-c2ccccn2)cc1	9
O=c1cc(N2CCOCC2)nc2n(Cc3cccc(C(F)(F)F)c3)ccn12	0
Cc1nnc(-c2ccc3occ(-c4ccc(C(C)O)cc4)c3c2)o1 (stereo not shown)	7
Cl.Oc1cccc(Nc2ccnc3cc(-c4ccncc4)ccc23)c1	45

CSNK1E %Inh of O=C(Nc1cccc(-c2nn3ncccc3c2-c2ccnc(Nc3cccc(C(F)(F)F)c3)n2)c1)c1c(F)cccc1F is 82

CSNK1E %Inh of CCCCCc1nc2c(N)ncnc2n1CCCCC is 3

CSNK1E %Inh of CNc1ncnc2[nH]ncc12 is 32

CSNK1E %Inh of COc1cc2c(cc1OC[C@@H](O)CO)ncc1c3ccc(C#N)cc3[nH]c21 is 0

CSNK1E %Inh of CC(C)(C)n1cnc2c(N)ncnc21 is 39

----------
Test system: CIT
Condition summary: concentration: 1 μM, replicates: in singlicate; n = 1
Lab note: anything with %Inh at or over 30% counts as Met; the rest go in Not met.

Study these solved cases before continuing.
Compound	Cat
CNc1ncnc2[nH]ncc12 [SKF-18355]	Not met
COc1ccc(Nc2ncc(C#N)c(Nc3ccccc3C(N)=O)n2)cc1N1CCN(C)CC1.Cl [GSK1558669]	Met
COC(=O)Nc1nc2cc(Oc3ccc(NC(=O)Nc4cc(F)ccc4F)cc3)ccc2[nH]1.Cl [GW701424]	Met
O=c1cc(N2CCOCC2)nc2n(Cc3cccc(Cl)c3Cl)c(C3CC3)nn12 [GSK2358994]	Not met
COc1cc2c(cc1OC[C@@H](O)CO)ncc1c3ccc(C#N)cc3[nH]c21	Met
O=C(NCCCN1CCOCC1)c1cccc(Nc2nccc(Nc3ccc(Oc4ccccc4)cc3)n2)c1 [GW663929]	Not met
Fc1ccc(-c2nn3c(OCC(F)(F)F)cccc3c2-c2ccncc2)cc1 [GW514784]	Met
COc1cc2c(cc1OCCN1CCN(C)CC1)ncc1c3ccc(C#N)cc3[nH]c21	Met
O=C(Nc1n[nH]c2cc(-c3cccc(F)c3)ccc12)C1CC1 [SB-735464]	Not met
NS(=O)(=O)CCc1cccc(Nc2nccc(-c3c(-c4cccc(NC(=O)c5c(F)cccc5F)c4)nn4ccccc34)n2)c1 [GSK336735]	Met

Is reported %Inh greater than or equal to 30% here: Cc1cn2c(=O)cc(N3CCOCC3)nc2n1Cc1cccc(Cl)c1Cl [GSK2334006]
Not met

Is reported %Inh greater than or equal to 30% here: Nc1nc(-c2ccc3c(N)n[nH]c3c2)cc(N2CCCC2)n1 [GSK2227430]
Not met

Is reported %Inh greater than or equal to 30% here: CC(C)(C)n1cnc2c(N)ncnc21 [SKF-97359]
Met

Is reported %Inh greater than or equal to 30% here: NS(=O)(=O)c1cccc(-c2ccc3nccc(-c4cccc(S(N)(=O)=O)c4)c3c2)c1 [GW867253]
Not met

Is reported %Inh greater than or equal to 30% here: CN(C1=C(c2ccccc2)C(=O)NC1=O)c1ccccc1 [SB-334860]
Met

Is reported %Inh greater than or equal to 30% here: COc1cc2ncn(-c3cc(OCc4sccc4Cl)c(C(N)=O)s3)c2cc1OC [GSK448459]
Not met

Is reported %Inh greater than or equal to 30% here: CN1c2ccc(NCc3ccc(F)cc3)cc2-c2c(cnn2C)S1(=O)=O
Not met

Is reported %Inh greater than or equal to 30% here: CN(C(=O)c1ccc(-c2cc(-c3c[nH]nc3-c3ccccn3)ccn2)cc1)C1CCOCC1 [GW810083]
Not met

Is reported %Inh greater than or equal to 30% here: Fc1ccc(-c2ncn(CCCN3CCOCC3)c2-c2cccnc2)cc1 [SB-211743]
Not met

----------
Test system: MAP4K4
Condition summary: concentration: 1 μM, replicates: in singlicate; n = 1
Metric: %Inh (%)
Reply numerically in %, unit not repeated.

Molecule	Unit text	%Inh
COc1ccc(Nc2nccc(N3CCC(NC(=O)Nc4cc(C)ccc4C)C3)n2)cc1 (stereo not drawn)	%	0
Cc1c2ccc(N(C)c3ccnc(Nc4cccc(S(N)(=O)=O)c4)n3)cc2nn1Cc1ccccc1.Cl.Cl	%	33
COc1ccc(Nc2ncc(C#N)c(Nc3ccccc3C(N)=O)n2)cc1N1CCN(C)CC1.Cl	%	96.8

Entry under test: O=C(NOCC1CC1)c1ccc(F)c(F)c1Nc1ccc(I)cc1Cl . Its %Inh was 0

Entry under test: c1ccc(-c2cc(-c3c[nH]nc3-c3ccccn3)ccn2)cc1 . Its %Inh was 22

----------
Test system: PRKD2;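 note: kd values determined as follow-up on hits from a single-replicate KINOMEscan panel screen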
Metric: Kd (nM)
Reply numerically in nM, unit not repeated.

PRKD2 Kd of Cc1cccc(-c2nc(Nc3ccc4ncsc4c3)c3ccccc3n2)n1 is 22

----------
Let's look at some compounds and their measured %Inh.
System: TNK2
Condition summary: concentration: 1 μM, replicates: in singlicate; n = 1
Reply numerically in %, unit not repeated.

Below, 8 compounds whose answers are already recorded.
Compound	Reported
O=C(NCCCN1CCOCC1)c1cccc(Nc2nccc(Nc3ccc(Oc4ccccc4)cc3)n2)c1 [GW663929]	19
NS(=O)(=O)c1cccc(-c2ccc3ncc(N4CCOCC4)nc3c2)c1 [GSK1535721]	2
CC(=O)Nc1ccc(COc2ccc(Nc3ccnc4cc(-c5ccccn5)ccc34)cc2)cc1.Cl [GW440148]	37
O=c1cc(N2CCOCC2)nc2n(Cc3cccc(F)c3)ccn12 [GSK2297430]	18
O=C(Nc1cccc(-c2nn3ncccc3c2-c2ccnc(Nc3cccc(C(F)(F)F)c3)n2)c1)c1c(F)cccc1F [GSK299495]	49
c1ccc(-c2n[nH]cc2-c2ccnc3ccccc23)nc1 [GW271431]	19
N#Cc1c(N2CCOCC2)sc(-c2ccn[nH]2)c1-c1ccc(Cl)cc1	0
COc1ccc(COc2cc(-n3cnc4ccccc43)sc2C(N)=O)cc1 [GSK1024304]	3

# context switch: different compound, same %Inh
Entry under test: Cl.Nc1ncnc2occ(-c3ccc(NC(=O)Nc4cc(C(F)(F)F)ccc4F)cc3)c12 [SB-707548] . Its %Inh was 20

----------
Let's look at some compounds and their measured %Inh.
System: PRKCD
Condition summary: concentration: 1 μM, replicates: in singlicate; n = 1
Give your result as the value with the unit written after it.

Below, 5 compounds whose answers are already recorded.
Compound	Reported
COc1ccc(Nc2nccc(N3CCC(NC(=O)Nc4cc(C)ccc4C)C3)n2)cc1 (stereo not shown)	0%
Cc1cccc(Cn2ccn3c(=O)cc(N4CCOCC4)nc23)c1	9%
COc1cc2ncn(-c3cc(OCc4sccc4Cl)c(C(N)=O)s3)c2cc1OC	0%
Cc1cn2c(=O)cc(N3CCOCC3)nc2n1Cc1cccc(Cl)c1Cl	0%
N#Cc1c(N2CCOCC2)sc(-c2ccn[nH]2)c1-c1ccc(Cl)cc1	0%

Entry under test: O=C(NCCNc1ccnc(Nc2ccc(F)cc2)n1)Nc1ccccc1F . Its %Inh was 0%

Entry under test: CNc1ncnc2[nH]ncc12 . Its %Inh was 0%

Entry under test: Cc1c(Cn2c(C)nn3c(=O)cc(N4CCOC(C)C4)nc23)cccc1C(F)(F)F (stereo not shown) . Its %Inh was 0%

Entry under test: CC(C)(C)n1cnc2c(N)ncnc21 . Its %Inh was 1%

Entry under test: O=c1cc(N2CCOCC2)nc2n(Cc3cccc4ccccc34)ccn12 . Its %Inh was 0%
